- Tested on: ACHN
- EXPERIMENT SUMMARY: NCI tumour cell line growth inhibition, 48 h
The source made the active and inactive calls. Cut-off read from the data, not from the text of the source: active = GI50 up to about 1.1 µM and inactive = higher.
TEST READOUT: GI50

These solved cases illustrate the format of a correct answer.
Cc1ccc(Nc2nc3c(=O)n(C)c(=O)n(C)c3nc2Nc2ccc(C)cc2)cc1; 3.46 µM (inactive)
Nc1ccc(S(=O)(=O)NCCS(=O)(=O)O)cc1; > 100 µM (inactive)
N#CC1(C#N)C2CCCCC23OC(=N)C1(C#N)C(c1ccco1)O3 (stereo unspecified); 28.5 µM (inactive)
COc1c(O)ccc(C2=Cc3ccc(O)cc3OC2)c1OC; 6.56 µM (inactive)
O=C(Nc1c(-c2nc3ccccc3[nH]2)sc(=S)n1-c1ccccc1)c1ccccc1; > 100 µM (inactive)

Continue with the next compound.
Request: Report measured GI50 on ACHN; entry: O=C(O)CCSC(=S)Nc1cccc(F)c1
Result: 23.8 µM (inactive)
